# test.target: hCB2R (Homo sapiens, UniProt P34972)
# Sequence (P34972 whole entry): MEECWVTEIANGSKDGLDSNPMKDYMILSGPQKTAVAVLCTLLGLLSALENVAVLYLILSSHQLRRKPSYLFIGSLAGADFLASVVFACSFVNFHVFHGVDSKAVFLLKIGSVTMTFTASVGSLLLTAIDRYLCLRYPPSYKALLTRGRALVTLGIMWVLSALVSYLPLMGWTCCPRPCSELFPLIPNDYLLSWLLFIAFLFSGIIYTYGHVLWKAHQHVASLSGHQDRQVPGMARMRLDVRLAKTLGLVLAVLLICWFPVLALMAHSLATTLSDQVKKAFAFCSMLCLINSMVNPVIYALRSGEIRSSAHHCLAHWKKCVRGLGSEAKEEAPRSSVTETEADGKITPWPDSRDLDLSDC
# Set-up: expressed in transfected cells; host or cells: Flp-In-293 (Invitrogen #R750-07), pcDNA5/FRT
# assay.conditions: hCB2R
readout.type: LogR GIRK
Enter a number only.

{"molecule": "CN1CCCC[C@@H]1Cn1cc(C(=O)c2cc([N+](=O)[O-])ccc2I)c2ccccc21 [(R)-AM1241]", "test.target": "hCB2R (Homo sapiens, UniProt P34972)", "LogR GIRK": 5.48}
{"molecule": "CCCCCCC(C)(C)c1cc(OC)c(C2=C[C@H]3CC[C@]2(CO)C3(C)C)c(OC)c1 [HU910]", "test.target": "hCB2R (Homo sapiens, UniProt P34972)", "LogR GIRK": 5.90}
{"molecule": "CCCCC/C=C\\C/C=C\\C/C=C\\C/C=C\\CCCC(=O)NCCO [Anandamide, N-arachidonoylethanolamine]", "test.target": "hCB2R (Homo sapiens, UniProt P34972)", "LogR GIRK": 4.53}
{"molecule": "CCCCC/C=C\\C/C=C\\C/C=C\\C/C=C\\CCCC(=O)OC(CO)CO [2-AG, 2-arachidonoyl glycerol]", "test.target": "hCB2R (Homo sapiens, UniProt P34972)", "LogR GIRK": 6.40}
{"molecule": "CN1CCCCC1Cn1cc(C(=O)c2cc([N+](=O)[O-])ccc2I)c2ccccc21 (racemic) [(rac)-AM1241]", "test.target": "hCB2R (Homo sapiens, UniProt P34972)", "LogR GIRK": 5.52}
{"molecule": "CN1CCCC[C@H]1Cn1cc(C(=O)c2cc([N+](=O)[O-])ccc2I)c2ccccc21 [(S)-AM1241]", "test.target": "hCB2R (Homo sapiens, UniProt P34972)", "LogR GIRK": 5.70}

# context switch: different molecule, same LogR GIRK
Param item = CCCCCCC(C)(C)c1cc(OC)c([C@@H]2C=C(CO)[C@@H]3C[C@H]2C3(C)C)c(OC)c1 [HU308] ; retrieve measured LogR GIRK.
6.281

---

# test.target: hCB2R (Homo sapiens)
# Set-up: expressed in transfected cells; host or cells: Flp-In-293 (Invitrogen #R750-07), pcDNA5/FRT
# assay.conditions: hCB2R
readout.type: β-AR-GIRK ΔΔlogR
Enter a number only.

Param item = CCCCC/C=C\C/C=C\C/C=C\C/C=C\CCCC(=O)NCCO [Anandamide, N-arachidonoylethanolamine] ; retrieve measured β-AR-GIRK ΔΔlogR.
0.38

Param item = `CCCCCCC(C)(C)c1cc(OC)c(C2=C[C@H]3CC[C@]2(CO)C3(C)C)c(OC)c1` ; retrieve measured β-AR-GIRK ΔΔlogR.
1.18

Param item = `CCCCCCC(C)(C)c1cc(OC)c([C@@H]2C=C(CO)[C@@H]3C[C@H]2C3(C)C)c(OC)c1` ; retrieve measured β-AR-GIRK ΔΔlogR.
0.80

Param item = CN1CCCC[C@@H]1Cn1cc(C(=O)c2cc([N+](=O)[O-])ccc2I)c2ccccc21 [(R)-AM1241] ; retrieve measured β-AR-GIRK ΔΔlogR.
1.08

Param item = CN1CCCC[C@H]1Cn1cc(C(=O)c2cc([N+](=O)[O-])ccc2I)c2ccccc21 [(S)-AM1241] ; retrieve measured β-AR-GIRK ΔΔlogR.
-0.37

Param item = CN1CCCCC1Cn1cc(C(=O)c2cc([N+](=O)[O-])ccc2I)c2ccccc21 (racemic) [(rac)-AM1241] ; retrieve measured β-AR-GIRK ΔΔlogR.
1.8

Param item = `CCCCC/C=C\C/C=C\C/C=C\C/C=C\CCCC(=O)OC(CO)CO` ; retrieve measured β-AR-GIRK ΔΔlogR.
-1.14

Provenance of the data: paper PMC5216056
